Reported Normal melting temperature values for the following compounds.
# RUN_PARAMETERS: Crystal; DTA
Return type: number; implicit unit °C.

SMILES_STR	UNIT_INFO	Normal melting temperature
c1ccc2c(c1)ccc1ccccc12	°C	98.90
Clc1ccccc1Cl	°C	-17.30

Ask: Fill in reported Normal melting temperature for this entry: Clc1ccc(Cl)cc1
Reply: 53.00

Ask: Fill in reported Normal melting temperature for this entry: Clc1cccc(Cl)c1
Reply: -24.90

###

Reported Molar enthalpy of transition or fusion values for the following molecules.
# ASSAY_SUMMARY: Molar enthalpy of transition or fusion
# RUN_PARAMETERS: Crystal; DSC
Return type: number; implicit unit kcal/mol.

SMILES_STR	Molar enthalpy of transition or fusion, kcal/mol
Clc1ccc(Cl)cc1	4.32
c1ccc2c(c1)ccc1ccccc12	3.99
Clc1cccc(Cl)c1	2.99

Ask: Fill in reported Molar enthalpy of transition or fusion for this entry: Clc1ccccc1Cl
Reply: 3.13
